- testedTarget: K-Ras G12C (Homo sapiens (Human), UniProt P01116+P62937, G12C)
- Sequence (P01116-2 other isoform, or with tags, fused parts or gaps G12C): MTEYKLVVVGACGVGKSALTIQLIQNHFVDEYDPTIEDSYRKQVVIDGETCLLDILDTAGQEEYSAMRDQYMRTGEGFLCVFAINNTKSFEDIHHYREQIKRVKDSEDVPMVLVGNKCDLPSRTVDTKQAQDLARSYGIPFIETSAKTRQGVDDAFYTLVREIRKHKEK
- Sequence (P62937 whole entry): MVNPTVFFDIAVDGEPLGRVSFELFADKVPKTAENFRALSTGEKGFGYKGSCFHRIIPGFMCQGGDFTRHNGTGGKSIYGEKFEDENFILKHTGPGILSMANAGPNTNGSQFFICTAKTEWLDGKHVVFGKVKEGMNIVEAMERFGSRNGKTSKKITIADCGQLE
- protocol: Ras-Raf (BRAF RBD) disruption / FRET / MOA assay, KRAS G12C
- Assay type: biochemical
- studyConditions: KRAS G12C; Ras-Raf disruption/FRET/MOA assay; read-out: IC50* KRAS G12C FRET data
pIC50: −log10 of the molar value.
Listing: pIC50 of selected compounds

compound	recordedEndpoint	valueObserved
CO[C@@H](C)c1ncccc1-c1c2c3cc(ccc3n1CC(F)(F)F)N1CCO[C@@H](C[C@H](NC(=O)[C@H](C(C)C)N3CC[C@]4(CCN(C(=O)C#CC(C)(C)N(C)C)C4)C3=O)C(=O)N3CCC[C@H](N3)C(=O)OCC(C)(C)C2)C1 (atropisomer, axis not shown) [Example A642]	pIC50	> 8.00
C=CC(=O)N1CCN(C(=O)N(C)[C@H](C(=O)N[C@H]2Cc3nc(cs3)-c3ccc4c(c3)c(c(-c3cccnc3[C@H](C)OC)n4CC)CC(C)(C)COC(=O)[C@@H]3CCCN(N3)C2=O)C(C)C)[C@@H]2CC[C@@H]21 (atropisomer, axis not shown) [Example A718]	pIC50	6.00 to 7.00
C=CC(=O)N1CCC[C@]12CCN(C(=O)N(C)[C@H](C(=O)N[C@H]1Cc3nc(cs3)-c3ccc4c(c3)c(c(-c3cccnc3[C@H](C)OC)n4CC)CC(C)(C)COC(=O)[C@@H]3CCCN(N3)C1=O)C(C)C)C2 (atropisomer, axis not shown) [Example A548]	pIC50	6.00 to 7.00

Now consider a different compound.
[in] Notebook entry, K-Ras G12C (Homo sapiens (Human), UniProt P01116+P62937, G12C) assay: pIC50 of CCn1c(-c2cnccc2COC)c2c3cc(ccc31)-c1ccnc(c1)C[C@H](NC(=O)[C@H](C(C)C)N(C)C(=O)[C@H]1CCN(C(=O)C#CCN(C)C)C1)C(=O)N1CCC[C@H](N1)C(=O)OCC(C)(C)C2 [Example A130] = ?
[out] > 8.00

###

- testedTarget: K-Ras G12C (Homo sapiens (Human), UniProt P01116+P62937, G12C)
- protocol: Ras-Raf (BRAF RBD) disruption / FRET / MOA assay, KRAS G12C
- Type: biochemical
- studyConditions: KRAS G12C; Ras-Raf disruption/FRET/MOA assay; read-out: IC50* KRAS G12C FRET data
pIC50: −log10 of the molar value.
Listing: pIC50 of selected compounds

compound	pIC50
C=CC(=O)N1CC[C@H]2[C@@H](C1)CN2C(=O)N(C)[C@H](C(=O)N[C@H]1Cc2nc(cs2)-c2ccc3c(c2)c(c(-c2cccnc2[C@H](C)OC)n3CC)CC(C)(C)COC(=O)[C@@H]2CCCN(N2)C1=O)C(C)C (atropisomer, axis not shown)	6.00 to 7.00
CCn1c(-c2cccnc2[C@H](C)OC)c2c3cc(ccc31)-c1cc(O)cc(c1)C[C@H](NC(=O)[C@H](C(C)C)N(C)C(=O)N1CCN(C(=O)/C=C/CN(C)C)CC1)C(=O)N1CCC[C@H](N1)C(=O)OCC(C)(C)C2 (atropisomer, axis not shown)	7.00 to 8.00
CCn1c(-c2cccnc2[C@H](C)OC)c2c3cc(ccc31)-c1cc(O)cc(c1)C[C@H](NC(=O)[C@H](C(C)C)N(C)C(=O)N1CCCN(C(=O)/C=C/CN(C)C)CC1)C(=O)N1CCC[C@H](N1)C(=O)OCC(C)(C)C2 (atropisomer, axis not shown)	7.00 to 8.00
C=CC(=O)N1C[C@@H](C(=O)N(C)[C@H](C(=O)N[C@H]2Cc3cc(O)cc(c3)-c3ccc4c(c3)c(c(-c3cccnc3COC)n4CC)CC(C)(C)COC(=O)[C@@H]3CCCN(N3)C2=O)C(C)C)C[C@H]1C	7.00 to 8.00
CO[C@@H](C)c1ncccc1-c1c2c3cc(ccc3n1CC(F)(F)F)-c1cccc(c1)C[C@H](NC(=O)[C@H](C(C)C)N1CC[C@]3(CCN(C(=O)C#CC(C)(C)N(C)C)C3)C1=O)C(=O)N1CCC[C@H](N1)C(=O)OCC(C)(C)C2 (atropisomer, axis not shown)	> 8.00

[in] Endpoint output: pIC50 of C=CC(=O)NC[C@@H]1CCN1C(=O)N(C)[C@H](C(=O)N[C@H]1Cc2nc(cs2)-c2ccc3c(c2)c(c(-c2cccnc2[C@H](C)OC)n3CC)CC(C)(C)COC(=O)[C@@H]2CCCN(N2)C1=O)C(C)C (atropisomer, axis not shown) . Value?
[out] 6.00 to 7.00

[in] Endpoint output: pIC50 of CO[C@@H](C)c1ncccc1-c1c2c3cc(ccc3n1CC(F)(F)F)N1CCO[C@@H](C[C@H](NC(=O)[C@@H](COC3CN(C(=O)C#CC(C)(C)N(C)C)C3)C(C)C)C(=O)N3CCC[C@H](N3)C(=O)OCC(C)(C)C2)C1 (atropisomer, axis not shown) . Value?
[out] > 8.00

[in] Endpoint output: pIC50 of C=CC(=O)N1CC[C@H](C(=O)N(C)[C@H](C(=O)N[C@H]2Cc3cccc(c3)-c3ccc4c(c3)c(c(-c3cccnc3[C@H](C)OC)n4CC)CC(C)(C)COC(=O)[C@@H]3CCCN(N3)C2=O)C2COC2)C1 (atropisomer, axis not shown) . Value?
[out] 6.00 to 7.00

[in] Endpoint output: pIC50 of C=CC(=O)N1CC[C@H](C(=O)N(C)[C@H](C(=O)N[C@H]2Cc3cc(sn3)-c3ccc4c(c3)c(c(-c3cccnc3[C@H](C)OC)n4CC)CC(C)(C)COC(=O)[C@@H]3CCCN(N3)C2=O)C(C)C)C1 (atropisomer, axis not shown) . Value?
[out] 6.00 to 7.00

[in] Endpoint output: pIC50 of C=CC(=O)N1CC[C@H](C(=O)N(C)[C@H](C(=O)N[C@H]2Cc3cccc(c3)-c3ccc4c(c3)c(c(-c3cccnc3[C@H](C)OC)n4CC)CC(C)(C)COC(=O)[C@@H]3CCCN(N3)C2=O)C(C)(C)F)C1 (atropisomer, axis not shown) . Value?
[out] 6.00 to 7.00

[in] Endpoint output: pIC50 of C#CC(=O)N1CC[C@H](C(=O)N(C)[C@H](C(=O)N[C@H]2Cc3cc(O)cc(c3)-c3ccc4c(c3)c(c(-c3cnccc3[C@H](C)OC)n4CC)CC(C)(C)COC(=O)[C@@H]3CCCN(N3)C2=O)C(C)C)C1 . Value?
[out] 7.00 to 8.00

[in] Endpoint output: pIC50 of C=CC(=O)N1CC[C@H](C(=O)N(C)[C@H](C(=O)N[C@H]2Cc3cc(O)cc(c3)-c3cc4c(c(-c5ccccc5CCOC)n(CC)c4cn3)CC(C)(C)COC(=O)[C@@H]3CCCN(N3)C2=O)C(C)C)C1 . Value?
[out] 5.00 to 6.00

[in] Endpoint output: pIC50 of CCn1c(-c2cccnc2[C@H](C)OC)c2c3cc(ccc31)-c1csc(n1)C[C@H](NC(=O)[C@H](C(C)C)N(C)C(=O)N(C)C1CN(C(=O)/C=C/CN(C)C)C1)C(=O)N1CCC[C@H](N1)C(=O)OCC(C)(C)C2 (atropisomer, axis not shown) . Value?
[out] 7.00 to 8.00

[in] Endpoint output: pIC50 of C=CC(=O)N1CC2(CCN(C(=O)N(C)[C@H](C(=O)N[C@H]3Cc4nc(cs4)-c4ccc5c(c4)c(c(-c4cccnc4[C@H](C)OC)n5CC)CC(C)(C)COC(=O)[C@@H]4CCCN(N4)C3=O)C(C)C)CC2)C1 (atropisomer, axis not shown) . Value?
[out] 7.00 to 8.00

[in] Endpoint output: pIC50 of C=CS(=O)(=O)N1CC2(CCN([C@H](C(=O)N[C@H]3Cc4cc(O)cc(c4)-c4ccc5c(c4)c(c(-c4cccnc4[C@H](C)OC)n5CC)CC(C)(C)COC(=O)[C@@H]4CCCN(N4)C3=O)C(C)C)C2=O)C1 (atropisomer, axis not shown) . Value?
[out] 7.00 to 8.00

###

- testedTarget: KRAS G12D (Homo sapiens (Human), UniProt P01116+P62937, G12D)
- Sequence (P01116-2 other isoform, or with tags, fused parts or gaps G12D): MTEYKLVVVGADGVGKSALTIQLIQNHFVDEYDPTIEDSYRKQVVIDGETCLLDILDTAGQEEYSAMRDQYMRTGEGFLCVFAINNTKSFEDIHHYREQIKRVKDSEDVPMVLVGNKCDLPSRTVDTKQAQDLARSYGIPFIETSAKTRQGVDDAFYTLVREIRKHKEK
- Sequence (P62937 whole entry): as the sequence (P62937 whole entry) above
- protocol: Ras-Raf (BRAF RBD) disruption / FRET / MOA assay, KRAS G12D
- Format: biochemical
- studyConditions: Ras-Raf disruption/FRET/MOA assay; class symbols; read-out: KRAS G12D FRET data IC50
pIC50: −log10 of the molar value.
Listing: pIC50 of selected compounds

Some solved cases for reference:
compound	valueObserved
C=CC(=O)N(C)[C@@H]1CCCN(C(=O)N(C)[C@H](C(=O)N[C@H]2Cc3nc(cs3)-c3ccc4c(c3)c(c(-c3cccnc3[C@H](C)OC)n4CC)CC(C)(C)COC(=O)[C@@H]3CCCN(N3)C2=O)C(C)C)C1 (atropisomer, axis not shown)	6.00 to 7.00
CCn1c(-c2cccnc2[C@H](C)OC)c2c3cc(ccc31)-c1cc(O)cc(c1)C[C@H](NC(=O)[C@H](C(C)C)N1CC[C@]3(CCN(C(=O)/C=C/CN(C)C)C3)C1=O)C(=O)N1CCC[C@H](N1)C(=O)OCC(C)(C)C2 (atropisomer, axis not shown)	7.00 to 8.00
C=CC(=O)N1CC[C@@H]2[C@H](C1)CN2C(=O)N(C)[C@H](C(=O)N[C@H]1Cc2nc(cs2)-c2ccc3c(c2)c(c(-c2cccnc2[C@H](C)OC)n3CC)CC(C)(C)COC(=O)[C@@H]2CCCN(N2)C1=O)C(C)C (atropisomer, axis not shown)	5.00 to 6.00
C=CC(=O)N1CCN(C(=O)N(C)[C@H](C(=O)N[C@H]2Cc3nc(cs3)-c3ccc4c(c3)c(c(-c3cccnc3[C@H](C)OC)n4CC)CC(C)(C)COC(=O)[C@@H]3CCCN(N3)C2=O)C(C)C)[C@@H]2C[C@@H]21 (atropisomer, axis not shown)	6.00 to 7.00
CO[C@@H](C)c1ncccc1-c1c2c3cc(ccc3n1CC(F)(F)F)-c1nnc(o1)C[C@H](NC(=O)[C@H](C(C)C)N(C)C(=O)[C@H]1CCN(C(=O)C#CC(C)(C)N3CCC3)C1)C(=O)N1CCC[C@H](N1)C(=O)OCC(C)(C)C2	< 5.00
C/C=C(\C#N)C(=O)N1CC[C@H](C(=O)N(C)[C@H](C(=O)N[C@H]2Cc3cc(O)cc(c3)-c3ccc4c(c3)c(c(-c3cccnc3COC)n4CC)CC(C)(C)COC(=O)[C@@H]3CCCN(N3)C2=O)C(C)C)C1	5.00 to 6.00

[in] Endpoint output: pIC50 of C=CC(=O)N1CCC2(CCN(C(=O)N(C)[C@H](C(=O)N[C@H]3Cc4cccc(c4)-c4ccc5c(c4)c(c(-c4cccnc4[C@H](C)OC)n5CC)CC(C)(C)COC(=O)[C@@H]4CCCN(N4)C3=O)C(C)C)CC2)C1 (atropisomer, axis not shown) . Value?
[out] 5.00 to 6.00

[in] Endpoint output: pIC50 of C=CC(=O)N1CC[C@H](C(=O)N(C)[C@H](C(=O)N[C@H]2Cc3cc(O)cc(c3)-c3ccc4c(c3)c(c(-c3cc(CN(C)C)cnc3[C@H](C)OC)n4CC)CC(C)(C)COC(=O)[C@@H]3CCCN(N3)C2=O)C(C)C)C1 (atropisomer, axis not shown) [Example A536] . Value?
[out] 5.00 to 6.00
